Test system: CCRF-CEM leukemia
Assay: NCI-60 one-dose screen, 48 h
Details: 10 µM unless noted
The panel holds about 83,000 compounds, 20% with a hit somewhere; the sample as a whole holds those more often. Activity calls are given as the source filed them. How the source made its calls: active means growth percent below 10; inactive means the rest.
Outcomes: label 1 (active), label 0 (inactive)

| compound | assay-target | group-label |
| --- | --- | --- |
| O=C1Nc2ccccc2/C1=C\c1c[nH]c2ccc(Br)cc12 | CCRF-CEM leukemia | label 0 |
| O=C1Nc2ccccc2C1(c1c[nH]c2ccccc12)c1c[nH]c2ccccc12 | CCRF-CEM leukemia | label 0 |
| CC/C(Cc1ccccc1)=C(\c1ccc(OCCCN(C)C)cc1)c1ccc(OC(=O)NCc2ccccc2)cc1 | CCRF-CEM leukemia | label 0 |
| COC(=O)c1c2c(c(C)[n+]([O-])c1C)C(=O)C(NCc1cccc(Cl)c1)=CC2=O | CCRF-CEM leukemia | label 0 |
| COc1ccc(C(=O)c2cc3c(N)c(C(=O)Nc4ccccc4)sc3nc2C)cc1 | CCRF-CEM leukemia | label 0 |
| O=C(C1=Cc2cc3ccccc3n2Cc2cnnn21)c1ccc(O)cc1 | CCRF-CEM leukemia | label 0 |
| Cc1ccc(/C=C/C(=O)c2cccc(OCCCOc3cccc(C(=O)/C=C/c4ccc(C)cc4)c3)c2)cc1 | CCRF-CEM leukemia | label 0 |
| COc1ccc(C(=O)N2c3ccccc3Sc3ccccc32)c(C(F)(F)F)c1 | CCRF-CEM leukemia | label 0 |
| CCC1S/C(=N\N=C(\C)c2cc3cc(Cl)ccc3o2)N(c2ccccc2)C1=O (configuration not stated) | CCRF-CEM leukemia | label 1 |
| O=C(CCCCCCN1CC(=O)N2[C@H](c3ccc(Br)cc3)c3[nH]c4ccccc4c3C[C@@H]2C1=O)NO | CCRF-CEM leukemia | label 0 |
| CCN(CC)CCN1C(=O)c2c(c(C)c3c(oc4ccc(OC)cc43)c2C)C1=O | CCRF-CEM leukemia | label 0 |
| CN(C)CCCC1(c2ccc(F)cc2)OCc2cc(-c3cc4ccccc4s3)ccc21 (configuration not stated) | CCRF-CEM leukemia | label 1 |

This collection of values is drawn from PubChem BioAssay (NCI).
